# TESTED SYSTEM: T1, 4H2705-AA
# T1 chain: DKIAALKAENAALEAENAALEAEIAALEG
# ASSAY OVERVIEW: two-hybrid library CCmax;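 note: natural log of median RNA to DNA barcode read ratio; higher means stronger binding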
# EXPERIMENTAL SETUP: mean of both orientations
Could you please report measured interaction score for the items listed next?

BINDER: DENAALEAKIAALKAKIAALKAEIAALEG [4H1385-AA]
interaction score: -1.8

BINDER: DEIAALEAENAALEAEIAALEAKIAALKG [4H134-AA]
interaction score: -0.938

BINDER: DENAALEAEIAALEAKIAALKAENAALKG [4H1068-AA]
interaction score: -1.15

BINDER: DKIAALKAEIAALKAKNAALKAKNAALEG [4H2687-AA]
interaction score: -1.7

BINDER: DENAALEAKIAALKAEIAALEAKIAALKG [4H1350-AA]
interaction score: -1.8

BINDER: DKIAALKAEIAALKAENAALEAKIAALKG [4H2646-AA]
interaction score: -1.19

Prompt line: Reported interaction score, binder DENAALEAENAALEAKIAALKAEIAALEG [4H1193-AA] : ____
Response line: -1.54
